# tested on: FGFR1c extracellular domain-IgG fusion protein (Homo sapiens)
# Construct: human FGFR Ic (residues 1-377); made in house
# Sequence (P11362 22-377): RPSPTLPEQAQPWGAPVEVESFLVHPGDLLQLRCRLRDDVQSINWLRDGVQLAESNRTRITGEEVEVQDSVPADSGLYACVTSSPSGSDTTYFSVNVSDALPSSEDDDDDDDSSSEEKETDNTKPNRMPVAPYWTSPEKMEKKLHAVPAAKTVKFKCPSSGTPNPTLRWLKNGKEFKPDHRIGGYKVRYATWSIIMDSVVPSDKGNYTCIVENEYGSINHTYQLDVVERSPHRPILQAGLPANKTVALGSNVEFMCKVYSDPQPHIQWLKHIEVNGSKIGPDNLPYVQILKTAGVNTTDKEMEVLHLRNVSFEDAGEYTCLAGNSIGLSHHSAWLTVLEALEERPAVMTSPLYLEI
# assay: Eu-labeled FGFR-IgG displacement from immobilized phagemid
# Format: binding
# measurement conditions: phage-displayed peptide, FIG. 7, read-out: IC50, displacement of Europium-labeled FGFR-IgG by unlabeled FGFR-IgG
readout name: IC50

> print(dat)
                 monomer.sequence  readout.name  meas.value
1  TLVCDTVLEGQWRVCNWE [F12 clone]          IC50      ~12 nM
